- test-name: Pharmacokinetic assessments in plasma, phase I/Ib study
- Type: in vivo, human
- conditions: human, plasma, oral, 400 mg, 400 mg BID, C2D1; geometric mean
measured-property: Cmax (ng/mL)
The reply should contain only the number, in ng/mL.

Input line: Query: Cmax; subject: CC[C@H](Nc1ncnc2[nH]cnc12)c1oc2ccccc2c(=O)c1-c1cccc(F)c1 [Tenalisib]
Output line: 2900

* * *

- test-name: Pharmacokinetic assessments in plasma, phase I/Ib study
- Type: in vivo, human
- conditions: human, plasma, oral, 400 mg, 400 mg BID, C1D1; geometric mean
measured-property: AUC(0-inf) (ng·h/mL)
Just the number in ng·h/mL, nothing appended.

Input line: What measured AUC(0-inf) goes with CC[C@H](Nc1ncnc2[nH]cnc12)c1oc2ccccc2c(=O)c1-c1cccc(F)c1 [Tenalisib] ?
Output line: 6530

* * *

- test-name: Pharmacokinetic assessments in plasma, phase I/Ib study
- Assay type: in vivo, human
- conditions: human, plasma, oral, 200 mg, 200 mg BID, C1D1; median
- Method: Complete PK assessments were performed during dose escalation on Day 1 of Cycle 1 and 2 and pre-dose at other time points (pre-dose on Day 8 and Day 15 of Cycle 1 and 2, Day 1 and Day 15 of Cycle 3 and 4 and pre-dose on Cycle 5 and beyond). In the dose expansion phase, samples were collected pre-dose on Day 1 from Cycle 1 to Cycle 8. […]
measured-property: Tmax (h)
Unit h implied. Number only.

Input line: For the compound shown here, CC[C@H](Nc1ncnc2[nH]cnc12)c1oc2ccccc2c(=O)c1-c1cccc(F)c1 [Tenalisib] , give the reported Tmax.
Output line: 1

* * *

- test-name: Pharmacokinetic assessments in plasma, phase I/Ib study
- Format: in vivo, human
- conditions: human, plasma, oral, 400 mg, 400 mg BID, C1D1; median
measured-property: Tmax (min)
Numbers only here, please. The scale is min.

Input line: Sample CC[C@H](Nc1ncnc2[nH]cnc12)c1oc2ccccc2c(=O)c1-c1cccc(F)c1 [Tenalisib] — what was its Tmax?
Output line: 48

* * *

- test-name: Pharmacokinetic assessments in plasma, phase I/Ib study
- Assay type: in vivo, human
- conditions: human, plasma, oral, 800 mg, 800 mg BID (fed), C1D1; geometric mean
measured-property: AUC(0-inf)

Input line: Sample CC[C@H](Nc1ncnc2[nH]cnc12)c1oc2ccccc2c(=O)c1-c1cccc(F)c1 [Tenalisib] — what was its AUC(0-inf)?
Output line: 14500 ng·h/mL

* * *

- test-name: Pharmacokinetic assessments in plasma, phase I/Ib study
- Format: in vivo, human
- conditions: human, plasma, oral, 800 mg, 800 mg BID (fed), C1D1; median
measured-property: Tmax (h)
Record the value in h, omitting the unit from your answer.

Input line: Any idea what Tmax was measured for "CC[C@H](Nc1ncnc2[nH]cnc12)c1oc2ccccc2c(=O)c1-c1cccc(F)c1" ?
Output line: 2.1

* * *

- test-name: Pharmacokinetic assessments in plasma, phase I/Ib study
- Assay type: in vivo, human
- conditions: human, plasma, oral, 200 mg, 200 mg BID, C1D1; geometric mean
measured-property: AUC(0-inf)
# do not omit the unit; it follows the number

Input line: Would you mind telling me what AUC(0-inf) value was observed for CC[C@H](Nc1ncnc2[nH]cnc12)c1oc2ccccc2c(=O)c1-c1cccc(F)c1 [Tenalisib] ?
Output line: 3540 ng·h/mL
